Cited source for all entries: PubChem BioAssay

- test-protocol: A549 cell viability effects, profiling panel, calcein-AM fluorescence, 48 h, basal (AID 1162); further: test concentration not given here
- condition-details: higher = more signal
readout-label: z-score
Answer field: number only, no words.

Here is how some compounds turned out for z-score.
O=C1C[C@@](C(=O)NCC(F)(F)F)(c2ccc([N+](=O)[O-])cc2)[C@@H](c2ccc(CO)cc2I)N1CC12CC3CC(CC(C3)C1)C2	-2.05
C=CCNC(=O)[C@@H]1[C@H]2C(=O)O[C@H](c3ccccc3)[C@H](c3ccccc3)N2[C@H](c2ccc(O)cc2)[C@@]12C(=O)Nc1ccc(C#CC3=CCCCC3)cc12	0.0719

Please look at the following compound next.
Req: Look up z-score: COCCOC(=O)N1C(=O)[C@@]2(c3ccccc31)[C@H](C(=O)Nc1nc3ccccc3s1)[C@H]1C(=O)O[C@H](c3ccccc3)[C@H](c3ccccc3)N1[C@@H]2c1ccccc1OCCO
Resp: -0.905
